# System: MS2 coat protein
# methodDescription: apparent KD of MS2 coat protein, switch OFF state (with FMN for OFF switches, without FMN for ON switches); designed switch direction (-1 OFF switch, 1 ON switch): -1; higher = weaker reporter binding
# assayConditions: FMN input: 0 or 200 uM; Eterna round: R93 (includes R88 designs)
Note to self: values exactly at 0.04 µM are y. So apparent KD of MS2 coat protein at or above 0.04 µM is y, below is n.

Consider the worked cases shown below.
residues="GUGUACAGAGGAUAUACUGGAGCUAGGAAACUAGCAAGAUCACAUGAGGAUCACCCAUGUAGAAGGCUGUACAC [Ex2: 743]" class=n
residues="AACCCGCUAGGAUAUACAGCAGGGAUUCGAAAACCCACGAAACAUGAGGAUCACCCAUGUAGAAGGAGUAGGGA [Bereatenat]" class=n
residues="AACAGACAUGAGGAUCACCCAUGUAAGGAUAUCCCAAACGAUAAAACAAGAAUGACAAGGAGAAGGUGCAGCAA [JR_Exc001_Sub006]" class=y
residues="AAAGGUGCAGGAUAUGCGUGGAAAAAGUGUAUUCAAAAAAAACAUGAGGAUCACCCAUGUAGAAGGGUACCAAA [MS2 Riboswitches On Chip Exclusion 2 wbt2]" class=y

Hi, just wondering whether AAAAUACAUGAGGAUCACCCAUGUGAGGAUAUGCUAUGGAAAUAAAAAAUAAAACAUAGCAGAAGGUACAAAAA [Mat - Exclusion 1 - Eli mod - D42] shows apparent KD of MS2 coat protein of 0.04 µM or higher.
n

Hi, just wondering whether AAGGGACAUGAGGAUCACCCAUGUCAGGAUAUCGGAAAAGGAAAAAAAAAAAAGAAGACGAGAAGGGACACCAA shows apparent KD of MS2 coat protein of 0.04 µM or higher.
n

Hi, just wondering whether AAAAAGUGAGGAUAUGUCAAAGGUCACGAAAGUGACAAAGGACAGAAGGCACAUGAGGAUCACCCAUGUAAAAA [Fiskers Exclusion 4D1 65% - Early G segment 1] shows apparent KD of MS2 coat protein of 0.04 µM or higher.
y

Hi, just wondering whether AAAAAUAGAGGAUAUACAUGAAAAAAAAAAAAAAAAAAAAAACAUGAGGAUCACCCAUGUAGAAGGCUAAAAAA [double AU!] shows apparent KD of MS2 coat protein of 0.04 µM or higher.
n

Hi, just wondering whether AACAGUACAGGAUAUACAUGAGGAUCACCCAUGUAGAGAGAAUAAAACAAAAAUAAAUGUAGAAGGGUACUGAA [Mat - Exclusion 3 - Eli mod - D68] shows apparent KD of MS2 coat protein of 0.04 µM or higher.
n

Hi, just wondering whether AAAACGGUAGGAUAUACAUGAGGAUCACCCAUGUUAAAUUUAAAAAUAAAAUUAAAAUGUAGAAGGACCAAAAA [Mai Tai1] shows apparent KD of MS2 coat protein of 0.04 µM or higher.
n

Hi, just wondering whether CUCUAGUCAGGAUAUGCAAGAAAAGAAGAGAAAGAAAAGAAGCAGAAGGGACAUGAGGAUCACCCAUGUAAGAA [EteRNA is fun!] shows apparent KD of MS2 coat protein of 0.04 µM or higher.
y

Hi, just wondering whether GGAUGUCUAGGAUAUACAUGAGGAUCACCCAUGUGAGAGAAAAAAGUGAGAAAGAAAAGUAGAAGGAGGUGUCG [salish99-ex3-88] shows apparent KD of MS2 coat protein of 0.04 µM or higher.
n
